# assayedTarget: T1, human GITR (hGITR), soluble analyte (human, UniProt Q9Y5U5 26-162)
# T1 sequence: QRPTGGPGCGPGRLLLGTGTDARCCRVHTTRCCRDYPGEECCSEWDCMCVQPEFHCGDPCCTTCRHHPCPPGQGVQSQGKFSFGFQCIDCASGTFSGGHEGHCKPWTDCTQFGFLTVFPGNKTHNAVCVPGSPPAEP
# protocol: SPR (Biacore T200), 37 C; antibody captured on anti-human Fc chip, GITR as analyte; 1:1 Langmuir fit
attributeMeasured: koff (s⁻¹)
One number for each entry, in s⁻¹.

Could you report koff for every entry in the following list?
1. m10H2 (antibody, V domains shown, In ADCC it is called hIgG1; also called anti-human GITR antibody m10H2; A647 labeled m10H2) VH: QVQLQQSGAELMKPGASVKISCTATGYTISRYWIEWVKQRPGHGLEWIGEILPGSGVTNYNEKFKGKATFTADTSSNTAYMQLSSLTSEDSAVYSCARKGTYYAMDYWGQGTSVTVSS VL: DILLTQSPAILSVSPGERVSFSCRASQSIGTSIHWYQQRTNGSPRLLIKYASESVSGIPSRFSGSGSGTDFTLFINSVESEDIADYYCQQTYSWPATFGAGTKLELK
2. h10H2 HU (antibody, V domains shown, Whole IgG captured on an anti-human Fc chip) VH: QVQLVQSGAEVKKPGSSVKVSCKASGGTFSRYWIEWVRQAPGQGLEWMGEILPGSGVTNYNEKFKGRVTITADESTSTAYMELSSLRSEDTAVYYCARKGTYYAMDYWGQGTSVTVSS VL: EIVLTQSPGTLSLSPGERATLSCRASQSIGTSIHWYQQKPGQAPRLLIYYASESVSGIPDRFSGSGSGTDFTLTISRLEPEDFAVYYCQQTYSWPATFGQGTKVEIK
3. h3G7 LF (antibody, V domains shown, Whole IgG captured on an anti-human Fc chip) VH: QVQLVQSGAEVKKPGASVKVSCKASGYTFTGATMNWVRQAPGQGLEWMGLINPYTGGIRYNQKFKGRVTMTRDTSTSTVYMELSSLRSEDTAVYYCARIGGYYDTMDYWGQGTLVTVSS VL: DIQMTQSPSSLSASVGDRVTITCRASESVEPRGINFLNWYQQKPGKAPKLLIYAASQASKGVPSRFSGSGSGTDFTLTISSLQPEDFATYYCQQALELPWTFGGGTKVEIK

OUT:
1. 0.00077
2. 0.0563
3. 0.015
